FYI, the data here is from ChEMBL document CHEMBL3804762.

I'd appreciate it if you could supply pEC50 values for the items below.
Target: Polymerase acidic protein (Influenza A virus (strain A/X-31 H3N2))
Experiment: Inhibition of recombinant Influenza A/X-31 virus PA infected in HEK293T cells after 2 hrs by vRNP reconstitution assay
Answers are plain numbers, as −log10 of the molar value.

COc1ccc2c(c1)cc1n2CC(=O)N(O)C1=O | 4.32

For each of the molecules below, state pEC50.
1. O=C1Cn2c(cc3cc(Cl)ccc32)C(=O)N1O
2. O=C1Cn2c(cc3cc(O)ccc32)C(=O)N1O
3. O=C1Cn2c(cc3ccccc32)C(=O)N1O

3.94
4.12
3.53
